- System: Radical scavenging activity
- EXPERIMENT DESCRIPTION: Antioxidant activity assessed as DPPH free radical scavenging activity
- Assay type: functional
MEASUREMENT NAME: IC50 (nM)

[A] O=C1C=C(CO)[C@H](O)[C@@H]2O[C@H]12 [PARASITENONE]
[B] OCc1cc(O)ccc1O [GENTISYL ALCOHOL]
[C] OCc1cc(O)c(O)c(Cl)c1
Order them by IC50, ascending: the compounds above. Use the labels to give the requested order.
C, B, A
(C: 600 nM, B: 1400 nM, A: 57000 nM)

---

- EXPERIMENT DESCRIPTION: Antioxidant activity assessed as peroxy nitrite free radical scavenging activity
- Type: functional
MEASUREMENT NAME: IC50 (µM)

[[record]]
structure_as_smiles = "OCc1cc(O)c(O)c(Cl)c1"
u = "µM"
endpoint_value = 3.1


[A] O=C1C=C(CO)[C@H](O)[C@@H]2O[C@H]12
[B] OCc1cc(O)ccc1O
Given the listed records, identify the one among A and B with higher IC50. Label of pick, please.
A
